molecular target: Efl1 R1086Q P151L (Saccharomyces cerevisiae, UniProt P53893, P151L/R1086Q); construct: made in house; host or cells: Saccharomyces cerevisiae; assay: ITC: binding of GTP to double mutant Efl1 R1086Q P151L; settings: Kd, +Mg^2+, 30 °C
readout_label: Kd (µM)
Please reply with the bare figure in µM and do not write the unit itself.

I am curious: what Kd value has been reported for `Nc1nc2c(ncn2[C@@H]2O[C@H](COP(=O)(O)OP(=O)(O)OP(=O)(O)O)[C@@H](O)[C@H]2O)c(=O)[nH]1` ?
17

---

biological target: Efl1 R1086Q (Saccharomyces cerevisiae, UniProt P53893, R1086Q); construct: made in house; host or cells: Saccharomyces cerevisiae; test: Isothermal titration calorimetry (ITC): binding of guanine nucleotides or Sdo1 to Efl1 R1086Q; details: Kd, guanine nucleotide, +Mg^2+, 30 °C
readout_label: pKd
Field pKd (float): negative decimal logarithm of the concentration in molar.

Nc1nc2c(ncn2[C@@H]2O[C@H](COP(=O)(O)OP(=O)(O)O)[C@@H](O)[C@H]2O)c(=O)[nH]1 [GDP] :: 4.55

As a next step, examine the compound that follows.
Bench note: what pKd did Nc1nc2c(ncn2[C@@H]2O[C@H](COP(=O)(O)OP(=O)(O)OP(=O)(O)O)[C@@H](O)[C@H]2O)c(=O)[nH]1 [GTP] show?
4.80

---

Target: Efl1 R1086Q (Saccharomyces cerevisiae, UniProt P53893, R1086Q)
Construct: made in house; host or cells: Saccharomyces cerevisiae
Experiment: Isothermal titration calorimetry (ITC): binding of guanine nucleotides or Sdo1 to Efl1 R1086Q
Conditions: Kd, guanine nucleotide, +Mg^2+, 25 °C
Procedure: All calorimetric measurements were carried out using MicroCal^TM iTC200 System (GE Healthcare, Northampton, MA, USA) in a temperature range of 25–35 °C. […] The binding isotherms obtained for the isolated GTPase in the presence of Mg(II) were analysed using a ternary model in which the protein can bind to the free nucleotide (G(D)TP) or that bound to one magnesium ion (MgG(D)TP); additionally, GTP may also exist in the form of Mg2GTP, which is not recognised by the protein. […]
# reported Kd; entries follow

Nc1nc2c(ncn2[C@@H]2O[C@H](COP(=O)(O)OP(=O)(O)O)[C@@H](O)[C@H]2O)c(=O)[nH]1 [GDP] :: 24 µM

Record request: Kd value, item Nc1nc2c(ncn2[C@@H]2O[C@H](COP(=O)(O)OP(=O)(O)OP(=O)(O)O)[C@@H](O)[C@H]2O)c(=O)[nH]1 [GTP]
16 µM

---

target: Efl1 R1086Q•Sdo1 (Saccharomyces cerevisiae, UniProt P53893, R1086Q); construct: made in house; host or cells: Efl1: Saccharomyces cerevisiae; Sdo1: Escherichia coli C41; experiment: ITC: binding of guanine nucleotides to pre-formed complex Efl1 R1086Q•Sdo1; conditions: Kd, −Mg^2+, 30 °C
Property: pKd; scope: individual molecules
// pKd: -log10(molar conc.)

Nc1nc2c(ncn2[C@@H]2O[C@H](COP(=O)(O)OP(=O)(O)OP(=O)(O)O)[C@@H](O)[C@H]2O)c(=O)[nH]1 :: 4.64

For the next question, use this molecule.
Quick one: pKd of `Nc1nc2c(ncn2[C@@H]2O[C@H](COP(=O)(O)OP(=O)(O)O)[C@@H](O)[C@H]2O)c(=O)[nH]1` ?
4.52

---

target: Efl1 R1086Q (Saccharomyces cerevisiae, UniProt P53893, R1086Q); construct: made in house; host or cells: Saccharomyces cerevisiae; assay: Isothermal titration calorimetry (ITC): binding of guanine nucleotides or Sdo1 to Efl1 R1086Q; conditions: Kd, guanine nucleotide, −Mg^2+, 25 °C
readout_label: Kd (µM)
A number alone suffices; assume µM.

Nc1nc2c(ncn2[C@@H]2O[C@H](COP(=O)(O)OP(=O)(O)O)[C@@H](O)[C@H]2O)c(=O)[nH]1 :: 3

Kindly consider the entry below.
So what does the record say about Kd for `Nc1nc2c(ncn2[C@@H]2O[C@H](COP(=O)(O)OP(=O)(O)OP(=O)(O)O)[C@@H](O)[C@H]2O)c(=O)[nH]1` ?
17

---

Molecular target: Efl1 wild type in complex with Sdo1 and 60S subunits (Saccharomyces cerevisiae)
Construct: Sdo1: Escherichia coli C41; 60S subunits purified from S. cerevisiae strain JD1370
Assay: Steady state fluorescence binding of mant-GTP to Efl1 wild type in complex with Sdo1 and 60S subunits
Conditions: 25 °C, one-binding-site model; read-out: dissociation constant (Kd)
Experimental: We measured the binding of different Efl1 constructs present in complex with Sdo1 and 60S subunits to the fluorescence GTP analogue, mant-GTP, by following the increase in the fluorescence signal after excitation at 355 nm. Fluorescence intensities were plotted as a function of increasing nucleotide concentrations, and the dissociation constant (Kd) was calculated by fitting the data to a one-binding-site model (Supplementary Figure S1B). […] Steady state fluorescence measurements […]
readout_label: pKd
Scale: negative log10 of molar concentration, which is what pKd denotes.

// query pKd value for entry `CNc1ccccc1C(=O)O[C@H]1[C@@H](O)[C@H](n2cnc3c(=O)[nH]c(N)nc32)O[C@@H]1COP(=O)(O)OP(=O)(O)OP(=O)(O)O`
4.44

---

Target: Efl1 mutant T33A in complex with Sdo1 and the 60S subunits (Saccharomyces cerevisiae, UniProt P53893, T33A)
Construct: Sdo1: Escherichia coli C41; 60S subunits purified from S. cerevisiae strain JD1370
Sequence (P53893 1-1110 T33A): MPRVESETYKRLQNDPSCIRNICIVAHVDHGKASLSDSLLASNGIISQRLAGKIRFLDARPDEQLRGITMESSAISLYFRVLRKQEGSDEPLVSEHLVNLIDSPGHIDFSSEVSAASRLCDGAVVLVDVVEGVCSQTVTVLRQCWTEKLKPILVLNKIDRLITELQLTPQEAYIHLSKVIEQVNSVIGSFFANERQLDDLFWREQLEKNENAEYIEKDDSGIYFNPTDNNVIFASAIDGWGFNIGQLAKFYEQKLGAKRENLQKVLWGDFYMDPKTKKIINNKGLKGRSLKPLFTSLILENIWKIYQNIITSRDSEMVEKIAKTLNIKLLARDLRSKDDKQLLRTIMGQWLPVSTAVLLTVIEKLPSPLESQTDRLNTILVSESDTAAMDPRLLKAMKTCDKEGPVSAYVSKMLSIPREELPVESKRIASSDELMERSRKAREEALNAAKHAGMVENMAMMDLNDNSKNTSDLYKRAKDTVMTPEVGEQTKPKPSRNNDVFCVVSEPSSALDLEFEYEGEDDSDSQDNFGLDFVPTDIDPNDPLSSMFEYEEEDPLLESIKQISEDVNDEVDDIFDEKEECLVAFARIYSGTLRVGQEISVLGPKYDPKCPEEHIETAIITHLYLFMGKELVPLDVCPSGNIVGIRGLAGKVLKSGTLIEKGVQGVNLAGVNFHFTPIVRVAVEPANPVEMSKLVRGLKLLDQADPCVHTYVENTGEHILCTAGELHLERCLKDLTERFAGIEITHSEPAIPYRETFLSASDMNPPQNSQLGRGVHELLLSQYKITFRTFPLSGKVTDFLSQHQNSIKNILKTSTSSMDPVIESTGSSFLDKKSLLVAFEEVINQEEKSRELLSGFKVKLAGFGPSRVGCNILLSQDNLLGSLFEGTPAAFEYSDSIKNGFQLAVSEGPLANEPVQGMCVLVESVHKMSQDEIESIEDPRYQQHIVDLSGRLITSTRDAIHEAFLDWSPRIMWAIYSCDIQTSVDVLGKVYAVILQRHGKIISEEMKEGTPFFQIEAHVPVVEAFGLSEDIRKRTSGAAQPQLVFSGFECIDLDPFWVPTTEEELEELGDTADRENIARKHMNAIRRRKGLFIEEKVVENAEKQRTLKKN
Sequence (Q07953 1-250 partner): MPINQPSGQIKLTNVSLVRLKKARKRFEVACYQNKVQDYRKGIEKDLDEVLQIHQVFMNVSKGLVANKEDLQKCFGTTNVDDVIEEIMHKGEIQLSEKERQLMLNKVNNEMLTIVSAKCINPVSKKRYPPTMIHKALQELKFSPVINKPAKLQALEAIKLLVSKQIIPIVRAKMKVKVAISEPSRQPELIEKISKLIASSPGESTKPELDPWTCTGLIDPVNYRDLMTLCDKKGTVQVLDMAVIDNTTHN
Assay: Steady state fluorescence binding of mant-GTP to Efl1 T33A in complex with Sdo1 and 60S subunits
Details: 25 °C, one-binding-site model; read-out: dissociation constant (Kd)
readout_label: Kd (µM)
Give just the numeric value; µM need not be written.

Item `CNc1ccccc1C(=O)O[C@H]1[C@@H](O)[C@H](n2cnc3c(=O)[nH]c(N)nc32)O[C@@H]1COP(=O)(O)OP(=O)(O)OP(=O)(O)O` has what recorded Kd?
24

Data credit: paper PMC9405973
